All values here come from PubChem BioAssay (NCATS).

# measurement notes: qHTS drug screen for cell cycle checkpoint inhibitors in PARPi-resistant BRCA-mutant ovarian cancer cell lines. (AID 1963452)
# experimental context: PEO1/OlaR viability, CellTiter-Glo luminescence, 96 h; measured here: PEO1 parental Z-AUC; stronger effect = lower value
Please use Satisfied for Z-AUC under -2 and Not satisfied for everything else, ties included.

>>> qualitative_label("CC[C@@]1(O)C(=O)OCc2c1cc1n(c2=O)Cc2cc3cc(O)ccc3nc2-1")
"Satisfied"

Q: Say whether its Z-AUC is strictly beneath -2. Entry: C[C@@H](Oc1cc(-n2cnc3ccc(CN4CCN(C)CC4)cc32)sc1C(N)=O)c1ccccc1C(F)(F)F
Ans: Not satisfied

Q: Say whether its Z-AUC is strictly beneath -2. Entry: CNC(=O)c1ccccc1Nc1nc(Nc2ccc(N3CCOCC3)cc2OC)ncc1Cl
Ans: Not satisfied

Q: Say whether its Z-AUC is strictly beneath -2. Entry: Cc1ccc(C(=O)Nc2cccc(C(F)(F)F)c2)cc1-c1ccc2nc(NCCN3CCOCC3)ncc2c1
Ans: Not satisfied

Q: Say whether its Z-AUC is strictly beneath -2. Entry: COc1cc(C(=O)N2CCC(N3CCN(C)CC3)CC2)ccc1Nc1ncc2c(n1)N(C)c1ccccc1C(=O)N2C
Ans: Not satisfied

* * *

# System: HaCat
# measurement notes: Cytotoxic Profiling of Annotated Libraries Using Quantitative High-Throughput Screening (AID 1296008); also: nearly all actives have a fitted effect of over 60% in size
# experimental context: Five cell lines viability, CellTiter-Glo ATP luminescence, 48-72 h
Inconclusive results are not listed. Activity calls are given as the source filed them. The call rests on the fitted dose curve; in most records, active means well fitted inhibition curve with a large enough effect; inconclusive means small, poorly fitted or top-dose-only effect; inactive means flat fitted curve, though single readings scatter.
// allowed return values: active, inactive

Please review the entries below; each comes with its answer.
>>> qualitative_label("C[C@@H]1CN(CC(=O)Nc2ccc3c(c2)Cc2cccc(-c4cc(=O)cc(N5CCOCC5)o4)c2S3)C[C@H](C)O1")
"inactive"
>>> qualitative_label("COCCn1c2c([n+](Cc3cnccn3)c1C)C(=O)c1ccccc1C2=O")
"active"
>>> qualitative_label("COc1cc(OC2CCN(C)CC2)ccc1Nc1ncc2c(n1)n(C1CCCC1)c(=O)n2C")
"active"
>>> qualitative_label("Cc1cc(Nc2cc(N3CCN(C)CC3)nc(Sc3ccc(NC(=O)C4CC4)cc3)n2)n[nH]1")
"active"
>>> qualitative_label("CCN1CCN(CC(=O)Nc2ccc(-c3cccc4c(=O)cc(N5CCOCC5)oc34)c3sc4ccccc4c23)CC1")
"active"
>>> qualitative_label("COc1ccc(CC2SC(=O)NC2=O)cc1C(=O)NCc1ccc(C(F)(F)F)cc1 (stereo not given)")
"inactive"
>>> qualitative_label("CNC(=O)c1cc(Oc2ccc(NC(=O)Nc3cc(C(C)(C)C)nn3-c3ccc4ncccc4c3)c(F)c2)ccn1")
"active"
>>> qualitative_label("COc1cc2c(Oc3ccc(-c4cnc(Nc5ccc(F)cc5)n(C)c4=O)cc3F)ccnc2cc1OCCCN1CCOCC1")
"active"

Q: Per the assay record, what outcome was assigned to Cc1cc(Nc2cc(N3CCN(C)CC3)nc(C=Cc3ccccc3)n2)n[nH]1 ?
Ans: active

Q: Per the assay record, what outcome was assigned to O=C(CCCCCCNC(=O)c1cnc(N(c2ccccc2)c2ccccc2)nc1)NO ?
Ans: active

* * *

# measurement notes: Quantitative High-Throughput drug screen in 47 multiple myeloma cell lines against the NCATS MIPE library collection: H1112_PLB cell viability assay (AID 1918967; also: potency is read from the fitted curve at half-maximal effect; nearly all actives have a fitted effect of over 30% in size)
# experimental context: H1112 myeloma cells viability, ATP luminescence, 48 h; series mostly up to 45.8 µM
Inconclusive results are not listed. Activity calls are given as the source filed them. Calls follow the shape of the dose curve; as a rule, active = well fitted cell-killing curve with a large enough effect; inconclusive = small, poorly fitted or top-dose-only effect, or effect the other way; inactive = no such curve, though single readings can be large or run the other way.
property measured: Potency

>>> result("CC(=O)c1c(C)c2cnc(Nc3ccc(N4CCNCC4)cn3)nc2n(C2CCCC2)c1=O")
"23.5 µM (active)"
>>> result("CN(C)CCCN=c1c2ccccc2n(C)c2[nH]c(=O)n(C)c(=O)c12")
"16.6 µM (active)"
>>> result("O=C(Nc1ncc(-c2cc(C(F)F)nn2-c2c(Cl)cccc2Cl)s1)C1CC1")
"0.469 µM (active)"
>>> result("CC(=O)Nc1nc(C)c(-c2ccc(Cl)c(S(=O)(=O)NCCO)c2)s1")
"1.48 µM (active)"

Lab note: O=C(O)c1ccc2c(c1)nc(Nc1cccc(Cl)c1)c1ccncc12 gave Potency of 6.62 µM (active)

* * *

# measurement notes: qHTS of pediatric cancer cell lines to identify multiple opportunities for drug repurposing: Confirmatory screen for SK-N-SH cells (AID 1347129);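 also: cells exposed to compound for 48 h before viability read; nearly all actives have a fitted effect of over 60% in size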; also: potency is read from the fitted curve at half-maximal effect
# experimental context: SK-N-SH neuroblastoma cell viability; series mostly up to 46.1 µM
Inconclusive results are not listed. Calls of active or inactive are those of the source. The call rests on the fitted dose curve; in most records, active means well fitted cell-killing curve with a large enough effect; inconclusive means small, poorly fitted or top-dose-only effect; inactive means flat fitted curve, though single readings scatter.
property measured: Potency

Example compounds with recorded Potency:
>>> result("COc1cc(Nc2ncc(F)c(Nc3ccc4c(n3)N(COP(=O)(O)O)C(=O)C(C)(C)O4)n2)cc(OC)c1OC")
"2.35 µM (active)"
>>> result("CCc1c2c(nc3ccc(O)cc13)-c1cc3c(c(=O)n1C2)COC(=O)[C@]3(O)CC")
"3.32 µM (active)"
>>> result("Nc1ncnc2c1c(-c1cnc3[nH]ccc3c1)nn2C1CCCC1")
"1.87 µM (active)"
>>> result("COC(=O)Nc1nc2ccc(C(=O)c3ccc(F)cc3)cc2[nH]1")
"inactive"
>>> result("C=C1C(=CC=C2CCC[C@]3(C)[C@@H]([C@H](C)C=C[C@H](C)C(C)C)CC[C@@H]23)C[C@@H](O)C[C@@H]1O")
"inactive"
>>> result("CC[C@@H]1C(=O)N(C)c2cnc(Nc3ccc(C(=O)NC4CCN(C)CC4)cc3OC)nc2N1C1CCCC1")
"6.62 µM (active)"
>>> result("CCN1CCN(Cc2ccc(-c3cc4c(N[C@H](C)c5ccccc5)ncnc4[nH]3)cc2)CC1")
"10.8 µM (active)"
>>> result("O=C(C=Cc1cccc(S(=O)(=O)Nc2ccccc2)c1)NO")
"13.6 µM (active)"
>>> result("Cc1ccc(C(N)=O)cc1Nc1nccc(-c2cn(C(C)C)c3cnccc23)n1")
"6.79 µM (active)"
>>> result("Cc1cc(N2CCOCC2)cc2[nH]c(-c3c(NC[C@@H](O)c4cccc(Cl)c4)cc[nH]c3=O)nc12")
"3.72 µM (active)"

Lab note: CC1(C)OC2=C(C(=O)c3ccccc3C2=O)[C@H](NCc2ccccc2)[C@H]1O gave Potency of 5.9 µM (active)

Lab note: COc1cc2c(Oc3ccc(NC(=O)C4(C(=O)Nc5ccc(F)cc5)CC4)cc3F)ccnc2cc1OCCCN1CCOCC1 gave Potency of 1.87 µM (active)

Lab note: Cc1ccc(C(=O)Nc2ccc(CN3CCN(C)CC3)c(C(F)(F)F)c2)cc1C#Cc1cnc2cccnn12 gave Potency of 1.48 µM (active)

Lab note: COc1c(OCCCN2CCOCC2)ccc2c3n(c(=NC(=O)c4cnc(N)nc4)nc12)CCN3 gave Potency of 2.04 µM (active)

Lab note: CN(C)CC(C)(C)CNc1nn2c(-c3ccccc3)nnc2cc1C1CCC1 gave Potency of inactive

Lab note: O=C(NC1CCNCC1)c1[nH]ncc1NC(=O)c1c(Cl)cccc1Cl gave Potency of 1.05 µM (active)

Lab note: O=c1[nH]nc(Sc2ncc([N+](=O)[O-])s2)n1-c1ccc2c(c1)OCCO2 gave Potency of 9.35 µM (active)

Lab note: CC(C)(C)NC(=O)[C@H]1CN(Cc2cccnc2)CCN1C[C@@H](O)C[C@@H](Cc1ccccc1)C(=O)N[C@H]1c2ccccc2C[C@H]1O gave Potency of inactive

Lab note: CC[C@@H]1C(=O)N(C)c2cnc(Nc3ccc(C(=O)NC4CCC(N5CCN(CC6CC6)CC5)CC4)cc3OC)nc2N1C(C)C (stereo partly specified) gave Potency of inactive

Lab note: O=C(O)c1ccc2cc(-c3ccc(O)c(C45CC6CC(CC(C6)C4)C5)c3)ccc2c1 gave Potency of inactive

Lab note: Cc1cc(Nc2cc(N3CCN(C)CC3)nc(Sc3ccc(NC(=O)C4CC4)cc3)n2)n[nH]1 gave Potency of 11.8 µM (active)

* * *

# measurement notes: Quantitative High-Throughput drug screen in 47 multiple myeloma cell lines against the NCATS MIPE library collection: KMS27_JCRB cell viability assay (AID 1918970); also: nearly all actives have a fitted effect of over 30% in size
# experimental context: KMS27 myeloma cells, CellTiter-Glo ATP viability, 48 h; series mostly up to 45.8 µM
Inconclusive results are not listed. Active and inactive are the calls of the source. The call rests on the fitted dose curve; in most records, active means well fitted cell-killing curve with a large enough effect; inconclusive means small, poorly fitted or top-dose-only effect, or effect the other way; inactive means no such curve, though single readings can be large or run the other way.
// allowed return values: active, inactive

Please review the entries below; each comes with its answer.
>>> qualitative_label("C#Cc1cccc(Nc2ncnc3cc(OC)c(OCCCCCCC(=O)NO)cc23)c1")
"active"
>>> qualitative_label("Cc1nc(N)ncc1-c1nc(N2CCOCC2)c2sc(C(C)(C)O)cc2n1")
"active"
>>> qualitative_label("CCCCCCCCCC(=O)N[C@@H](Cc1c[nH]c2ccccc12)C(=O)N[C@H](CC(N)=O)C(=O)N[C@@H](CC(=O)O)C(=O)N[C@@H]1C(=O)NCC(=O)N[C@@H](CCCN)C(=O)N[C@@H](CC(=O)O)C(=O)N[C@H](C)C(=O)N[C@@H](CC(=O)O)C(=O)NCC(=O)N[C@H](CO)C(=O)N[C@@H]([C@@H](C)CC(=O)O)C(=O)N[C@@H](CC(=O)c2ccccc2N)C(=O)O[C@@H]1C")
"inactive"
>>> qualitative_label("CC(NCc1ccc2c(c1)nc(NC(=O)c1ccc(-c3cn[nH]c3)s1)n2CC(C)(C)O)C(C)(C)C (stereo not given)")
"active"

// next entry
Q: Per the assay record, what outcome was assigned to O=C(C=Cc1cccc(S(=O)(=O)Nc2ccccc2)c1)NO ?
Ans: active
